Recorded values, source patent US20150218281A1.

Recorded measurements of Binding Level sample 2 - sample 1 (RU), one per entry
- experimental system: T1, recombinant human OX40L (extracellular domain, R&D Systems) (human, UniProt P23510 51-183)
- T1 construct: also called hOX40L; rec. hOX40L
- T1 sequence: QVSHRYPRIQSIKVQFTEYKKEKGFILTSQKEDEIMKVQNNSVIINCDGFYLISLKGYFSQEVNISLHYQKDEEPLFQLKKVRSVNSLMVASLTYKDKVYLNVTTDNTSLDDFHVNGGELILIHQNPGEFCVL
- test name: SPR, second injection after competitor OX40L19A07
Number only, in RU; omit the unit.

Field: example entries. Status: answers known.
OX40L01E10 (VHH, monovalent Nanobody from E. coli; not shown: C-terminal c-myc and His6 tag) VHH: EVQLVESGGGLVQAGDSLRLSCAASGLTFSSFAMGWFRQAPGKEREFVAAISRSGYGTSEADSVRDRFIISRDNAKNTVTLHLSRLKPEDTAVYYCAAEHTLGRPSRSQINYLYWGQGTQVTVSS | 17
OX40L19D08 (VHH, monovalent Nanobody from E. coli; not shown: C-terminal c-myc and His6 tag) VHH: EVQLVESGGGLVQAGASLRLSCAASGRRFISNYAMGWFRQAPGQERAFVAAISRSGSITYYTDSVKGRFSISRDYAKSTVYLQMDNLKPEDTAVYYCAADGGAVRDLTTNLPDYWGRGTQVTVSS | 47
OX40L18E09 (VHH, monovalent Nanobody from E. coli; not shown: C-terminal c-myc and His6 tag) VHH: EVQLVESGGGLVQAGGSLRLSCAASRNILSLNTMGWYRHAPGKPRELVARISSNSKTDYADSVKGRFTISRDNAKNTVLLQMNSLKPEDTGVYYCNLNVWRTSSDYWGQGTQVTVSS | 30
OX40L01B11 (VHH, monovalent Nanobody from E. coli; not shown: C-terminal c-myc and His6 tag) VHH: EVQLVESGGGLVQAGGSLRLSCVASGRSFSTYIMGWFRQAPGKEREFVATISRSGITTRSADSVKGRFTISRDNAKNTVYLQMNSLKPEDTAVYYCAAGPYVEQTLGLYQTLGPWDYWGQGTQVTVSS | 180
OX40L19A07 (VHH, monovalent Nanobody from E. coli; not shown: C-terminal c-myc and His6 tag) VHH: EVQLVESGGGLVQAGGSLRLSCAASGFTLDDYAIAWFRQAPGKEREGVSRIKISNGRTTYAGSVKGRFTISSDNAKNTVYLQMNSLNAEDTAVYYCAADRSSLLFGSNWDRKARYDYWGQGTQVTVSS | 6
OX40L15B07 (VHH, monovalent Nanobody from E. coli; not shown: C-terminal c-myc and His6 tag) VHH: EVQLVESGGGLVQAGGSLRLSCAASRSIGRLDRMGWYRHRTGEPRELVATITGGSSINYGDFVKGRFTISIDNAKNTVYLQMNNLKPEDTAVYYCNFNKYVTSRDTWGQGTQVTVSS | 26

Exercise: Quick one: Binding Level sample 2 - sample 1 (RU) for OX40L01E07 (VHH, monovalent Nanobody from E. coli; not shown: C-terminal c-myc and His6 tag) VHH: EVQLVESGGGLVQAGGSLRLSCAASGRTFSSIYAKGWFRQAPGKEREFVAAISRSGRSTSYADSVKGRFTISRDNAKNTVYLQMNSLKPEDTAVYYCAAVGGATTVTASEWDYWGLGTQVTVSS ?
Solution: 63
